Reference source for all entries: paper PMC5540273

Tested on: ERBB3
assaySetup: concentration: 1 μM,replicates: in singlicate; n = 1;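 also: KINOMEscan kinase panel screen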
testReadout: %Inh (%)
Numbers only, in %.

# example entries with known answers
>>> reported("COc1ccc(C[C@@H](CN)NC(=O)c2cc(Br)c(-c3ccnc4[nH]ccc34)s2)cc1.Cl.Cl")
0
>>> reported("Cc1occc1-c1nc(N)c(OC[C@@H](N)Cc2c[nH]c3ccccc23)cc1-c1cc2c(C)n[nH]c2cn1")
0
>>> reported("Cc1cc(C(=O)Nc2ccc(Oc3ccc4nc(NC(=O)C5CC5)cn4n3)cc2)nn1-c1ccccc1")
87
>>> reported("CN(C)CCOc1ccc(-c2cc(-c3c[nH]nc3-c3ccccn3)ccn2)cc1")
43
>>> reported("O=C(NCCNc1ccnc(NCc2ccc(F)cc2)n1)c1cc2ccccc2s1")
0
>>> reported("Cc1ccc2c(-c3ccncc3)c(-c3ccc(F)cc3)nn2c1.Cl")
0
>>> reported("Cc1n[nH]c2ccc(-c3cc(OC[C@@H](N)Cc4ccccc4)cnc3-c3ccoc3)cc12.O=C(O)C(F)(F)F.O=C(O)C(F)(F)F")
0

Looking up "Cc1cc2cn[nH]c2cc1-c1cccc2c(N)c(C(N)=O)nnc12" , I see its %Inh listed as 30

----------
Tested on: ERK8
Construct: gene MAPK15
assaySetup: concentration: 1 μM,replicates: in singlicate; n = 1
Consider the following compounds; for each one, report its %Inh.
Give bare numbers, in %.

Observe how each entry below is paired with its result.
>>> reported("CCN(CC)CCOc1ccc(Nc2ncc3cc(-c4c(Cl)cccc4Cl)c(=O)n(C)c3n2)cc1")
0
>>> reported("Cl.Cl.Nc1nc(-c2ccc3c(N)n[nH]c3c2)cc(N2CCCC(NC(=O)c3ccccc3)C2)n1 (centres unmarked)")
0
>>> reported("O=C(NCCCN1CCOC1=O)c1cnc(NCc2cc(Cl)ccc2Cl)nc1NC1CCCC1")
0
>>> reported("Cl.Cl.NC[C@H](CC1CCCCC1)NC(=O)c1cc(Br)c(-c2ccnc3[nH]ccc23)s1")
30
>>> reported("Cc1cc2cn[nH]c2cc1-c1cccc2c(N)c(C(N)=O)nnc12")
20
>>> reported("Cl.Oc1cc(-c2nc(-c3ccccc3)[nH]c2-c2ccncc2)ccc1Cl")
0
>>> reported("Cc1occc1-c1nc(N)c(OC[C@@H](N)Cc2c[nH]c3ccccc23)cc1-c1cc2c(C)n[nH]c2cn1")
96.6

Read the next record carefully.
Quick note, %Inh for "Cc1ccc2c(-c3ccncc3)c(-c3ccc(F)cc3)nn2c1.Cl" landed at 0

----------
Tested on: PRKCH
assaySetup: concentration: 1 μM,replicates: in singlicate; n = 1
Provide the recorded %Inh for the entries that follow.
Give bare numbers, in %.

>>> reported("NC(=O)c1cc(-c2ccccc2)cc2c(C3CCNCC3)c[nH]c12")
71
>>> reported("CC(C)N1C(=O)Cc2cc(Nc3ncc(C(F)(F)F)c(NCc4cccc(S(C)(=O)=O)c4)n3)ccc21")
0

Go through the items and report each one's %Inh.
1. CCN(CC)CCCCNc1ncc2cc(-c3c(Cl)cccc3Cl)c(NC(=O)NC(C)(C)C)nc2n1
2. Nc1nc(Nc2ccccc2)cc(-c2ccc3c(N)n[nH]c3c2)n1
3. CCN(CC)CCOc1ccc(Nc2ncc3cc(-c4c(Cl)cccc4Cl)c(=O)n(C)c3n2)cc1
4. C[C@@H](Oc1cc(-c2cnn(C3CCNCC3)c2)cnc1N)c1c(Cl)ccc(F)c1Cl
5. Cl.Oc1cc(-c2nc(-c3ccccc3)[nH]c2-c2ccncc2)ccc1Cl
6. CN(C)CCOc1ccc(-c2cc(-c3c[nH]nc3-c3ccccn3)ccn2)cc1

A:
1. 0
2. 0
3. 0
4. 0
5. 1
6. 8
